experiment: modulators of CIT2-GFP expression in yeast, confirmation, S. cerevisiae, GFP fusion, cherry picks, mother/daughter gates (AID 2274)
recorded_conditions: S. cerevisiae CIT2-GFP strain, flow cytometry, 3 h; at 10 µM; stronger effect = higher value
endpoint_name: GFP response, % of DMSO (%)

molecule	endpoint_name	readout_unit	recorded_measurement
CNc1cc(CSC)nc(SCc2ccc(Cl)cc2Cl)n1	GFP response, % of DMSO	%	88.3
CCOC(=O)CS(=O)(=O)c1nc(-c2ccc(F)cc2)cc(C(F)(F)F)n1	GFP response, % of DMSO	%	116
O=C(O)c1ccccc1SC1CC(=O)N(c2ccc3c(c2)OCO3)C1=O (stereo not given)	GFP response, % of DMSO	%	95.8
CC(=O)OCC(=O)[C@@]1(O)CC[C@H]2[C@@H]3CCC4=CC(=O)CC[C@]4(C)[C@H]3C(=O)C[C@@]21C	GFP response, % of DMSO	%	97.8
Cn1c(=O)c(C(=O)Nc2ncccc2O)c(O)c2ccccc21	GFP response, % of DMSO	%	90.3
N#C/C(=C\c1c(N2CCN(c3ccccc3)CC2)nc2ccccn2c1=O)C(N)=O	GFP response, % of DMSO	%	98.8
CC(=O)Nc1cccc(C(=O)/C=C/c2ccc(C)cc2)c1	GFP response, % of DMSO	%	103
O=C(CSc1ccc(Cl)cc1)Nc1cccc(-c2nc3ccccc3[nH]2)c1	GFP response, % of DMSO	%	96.4
O=C(c1ccccn1)c1conc1C(=O)c1ccc(Br)cc1	GFP response, % of DMSO	%	139
O=C(N/N=C/c1ccccc1Cl)c1ccc(F)cc1	GFP response, % of DMSO	%	105

----------
Listing: GFP response vs DMSO of selected molecules
experiment: RPL19A-GFP modulators, yeast TOR pathway, confirmation, cell-based, S. cerevisiae, flow cytometry, cherry picks, mother/daughter gates (AID 2270)
recorded_conditions: S. cerevisiae RPL19A-GFP strain, 3 h, measured here: mother cell gate, at 10 µM, stronger effect = lower value, 100 = same GFP as DMSO wells
endpoint_name: GFP response vs DMSO (%)

smiles_record	endpoint_name	recorded_measurement
CCOc1cc(/C=C2/N=C(c3ccc4c(c3)OCO4)OC2=O)ccc1OC(C)=O	GFP response vs DMSO	94.2
Oc1ccccc1/C=N/c1c(-c2ccco2)nc2ccccn12	GFP response vs DMSO	100
COC(=O)c1ccc(/C=N/OCC(=O)NCCc2ccc(OC)c(OC)c2)cc1	GFP response vs DMSO	98.7
O=S(=O)(c1cccc(C(F)(F)F)c1)c1ccc(O)cn1	GFP response vs DMSO	98.5
CC(=O)Nc1cccc(Oc2ccc(-c3noc(C)n3)cc2)c1	GFP response vs DMSO	96.3
Cc1ccccc1NC(=O)c1ccccc1O	GFP response vs DMSO	94

----------
experiment: LAP4-GFP expression modulators in yeast, confirmation, cell-based, cherry picks, flow cytometry, mother/daughter gates (AID 2271);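 also: ratio of sample to DMSO plate mean so 100% equals DMSO level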
recorded_conditions: S. cerevisiae LAP4-GFP strain, 3 h, at 10 µM, stronger effect = higher value, 100 means same as DMSO control
Listing: GFP response relative to DMSO of selected compounds

compound	GFP response relative to DMSO, %
O=C(c1cccc(COc2ccc(Cl)cc2Cl)c1)N1CCN(c2ccccn2)CC1	114
C=CCNC(=O)/C(C#N)=C/c1c(N(Cc2ccccc2)Cc2ccccc2)nc2ccccn2c1=O	99.8
Cc1c(C(=O)NCCSCc2cccc(C(F)(F)F)c2)cnn1-c1ccc(F)cc1	98.8
COc1ccc(OC)c(C2CC(c3c(-c4ccccc4)c4cc(Cl)ccc4[nH]c3=O)=NN2S(C)(=O)=O)c1 (stereo not given)	92.6
CCC(=O)Nc1ccc(NC(=O)c2oc3ccccc3c2C)cc1	99.8

----------
Listing: vesicle binding response of selected compounds
experiment: inhibitors of CD8+ T cell-vesicle binding, pilot screen, LFA-1/ICAM-1 modulator project, MLPCN validation set, flow cytometry (AID 2523);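 also: mean PE anti-B7-1 fluorescence of CD8+ cells relative to row control; 100% = QL9-loaded vesicles with DMSO vehicle in the same plate row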
recorded_conditions: 2C mouse CD8+ T cells, at 7 µM, stronger effect = lower value

compound	vesicle binding response [%]
C[C@]12CCC(=O)C=C1CC[C@@H]1[C@@H]2C(=O)C[C@@]2(C)[C@H]1CC[C@]2(O)C(=O)CO	136
OC(CCCN1CCCCC1)(c1ccccc1)c1ccccc1	250
COc1ccccc1C1(CC(=O)N2CCCCC2)CCOC(C(C)C)C1 (stereo not drawn)	205
O=C1CCCN1CCCn1cnc2c([nH]c3ccc(F)cc32)c1=O	124
CN(Cc1ccccc1)CC(O)COc1ccc(CNCc2cccnc2)cc1 (stereo not drawn)	211
O=C(c1ccccc1F)c1cc2c(cc1[N+](=O)[O-])OCCO2	163
CN(C)CCC(c1ccc(Br)cc1)c1ccccn1 (stereo not drawn)	182
CC(=O)NC1C(OCCOc2ccc(Cl)cc2Cl)OC(COC(C)=O)C(OC(C)=O)C1OC(C)=O (stereo not drawn)	168
CC(C)[N+](C)(CCOC(=O)C1c2ccccc2Oc2ccccc21)C(C)C	192
CC1(C)CC(=O)c2cc(O)ccc2O1	199
CCCCC[C@H](O)/C=C/[C@@H]1[C@@H](C/C=C\CCCC(=O)O)[C@H]2CO[C@@H]1C2	192
CNCCc1ccccn1	212
CN(C)c1nc(N(C)C)nc(N(C)C)n1	181
CN1CCC(OC(c2ccccc2)c2ccccc2)CC1	186
CN1CCN(C2=Nc3cc(Cl)ccc3Nc3ccccc32)CC1	222
COc1ccc2oc(=O)c(C(=O)N3CCN(c4ccccc4)CC3)cc2c1	130
O=C(O)C1Sc2[nH]c(=O)sc2C2c3ccc(O)cc3OC(=O)C12 (stereo not drawn)	157
OC[C@H]1O[C@@H](n2cnc3c(Nc4ccccc4)ncnc32)[C@H](O)[C@@H]1O	139
O=C(c1ccc(F)cc1)[C@@H]1[C@@H](C(=O)c2ccccc2)[C@@]2(C(=O)Nc3ccccc32)[C@H]2c3ccccc3C=CN12	172
COc1ccc(N2C(=O)C3CCCN3C2=O)cc1 (stereo not drawn)	146
CC(C)OC(=O)C(C)(C)Oc1ccc(C(=O)c2ccc(Cl)cc2)cc1	223
C[N+]12CCCCC1C(COC(=O)c1ccc3c(c1)OCO3)CCC2 (stereo not drawn)	116
COc1cc2c(cc1OC)C(c1cc(OC)c(OC)c(OC)c1)NCC2 (stereo not drawn)	148

----------
experiment: LAP4-GFP expression modulators in yeast, confirmation, cell-based, cherry picks, flow cytometry, mother/daughter gates (AID 2271);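 also: ratio of sample to DMSO plate mean so 100% equals DMSO level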
recorded_conditions: S. cerevisiae LAP4-GFP strain, 3 h, at 10 µM, stronger effect = higher value, 100 means same as DMSO control
Active and inactive are the calls of the source.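 How the source made its calls: active means GFP response above 150% of the DMSO control; inconclusive means fewer than 70 events counted in any yeast strain; inactive means the rest.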
Listing: GFP response relative to DMSO of selected compounds

smiles_record	GFP response relative to DMSO
CC(=O)c1ccc(Sc2ccccn2)c([N+](=O)[O-])c1	99.2% (inactive)
COc1cccc(N=Cc2nc(-c3ccccc3)oc2OC(C)=O)c1	108% (inactive)
COc1cc(NC(=O)c2ccccc2F)ccc1NC(=O)c1cc2ccccc2o1	97% (inactive)
O=C(OCCCOC(=O)c1ccc(Br)o1)c1ccc(Br)o1	108% (inactive)
Cc1ccc2[nH]cc(/C=C/c3cc[n+](C)cc3)c2c1	153% (active)
COc1cc(NC(=O)c2cccc(C)c2)ccc1NC(=O)c1cc2ccccc2o1	103% (inactive)
CCOC(=O)c1ccc(NC(=O)CCc2nc(-c3ccc(Cl)cc3)no2)cc1	99.2% (inactive)
COc1ccc(C(=O)NC(=S)Nc2ccc(CN3CCOCC3)cc2)cc1	99.5% (inactive)
O=S(=O)(c1ccc(Cl)cc1)c1ccccn1	94.1% (inactive)
Nc1ccc(-c2c3ccc(=O)cc-3oc3cc(O)ccc23)cc1C(=O)O	150% (active)
Clc1ccc(C2=NNC(=NCc3ccccc3)SC2)cc1	97.9% (inactive)

----------
experiment: yeast V-ATPase proton transport modulators, S. cerevisiae, pHLuorin, HTS validation (AID 504600);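 also: plate controls were DMSO for no effect and reference compound for full effect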
recorded_conditions: S. cerevisiae pHLuorin cytosolic pH, at 10 µM, stronger effect = higher value
Listing: response of selected molecules

molecule	response / %
CC(NCCC(c1ccccc1)c1ccccc1)c1ccccc1 (centres undefined)	13.1
CN(C)c1nc(N(C)C)nc(N(C)C)n1	-8.12
CC(C)NCC(O)COc1ccc(CC(N)=O)cc1 (centres undefined)	0.46
C[C@H]1C[C@H]2[C@@H]3CCC4=CC(=O)C=C[C@]4(C)[C@@]3(Cl)[C@@H](O)C[C@]2(C)[C@@]1(O)C(=O)CO	4.84
Cn1nc(-c2ccccn2)nc2c(=O)n(C)c(=O)nc1-2	-11.7
COc1ccc(OC)c(-n2c(Cn3c(-c4ccccn4)nc4ccccc43)n[nH]c2=S)c1	-0.2
Clc1ccc2c(c1)C(N1CCNCC1)=Nc1ccccc1O2	-1.95
COc1ccccc1C(CC(=O)Nc1ccccc1C)c1ccc(OC(C)C)cc1 (centres undefined)	-5.65
O=C(CC(C(=O)O)c1c[nH]c2ccccc12)c1ccccc1 (centres undefined)	-1.72
O=C(O)C[C@@H](O)C(=O)O	-4.82
Cn1c2ccc(CC(=O)O)cc2c2cc(CC(=O)O)ccc21	1.83
CNc1nc(Nc2ccccc2)nc(OCC(F)(F)F)n1	-7.15
O=C(/C=C/c1ccc2c(c1)OCO2)c1ccccn1	-4.66
CC1(C)Cc2ccccc2C(C(Cc2ccccc2)C(N)=O)=N1 (centres undefined)	6.35
O=C1Nc2ccc3sc4ccccc4c3c2C1=O	-7.6
O=C1c2ccccc2C(=O)C1c1ccccc1	-0.31
N/C(=N/OS(=O)(=O)c1ccc([N+](=O)[O-])cc1)c1ccncc1	6.86
CCOC(=O)c1cccc(C(=O)OCC)n1	-1.45
COc1ccc(CCNC(=S)NC(=O)/C=C/c2ccc(C)cc2)cc1OC	-1.1
COc1ccc(C2CNC(=O)C2)cc1OC1CCCC1 (centres undefined)	-25.8
Cc1c(OCC(=O)NC(Cc2c[nH]c3ccc(O)cc23)C(=O)O)ccc2c3c(c(=O)oc12)CCC3 (centres undefined)	6.27
CCS(=O)(=O)CCn1c([N+](=O)[O-])cnc1C	5.33
C[C@]12CC[C@@H]3c4cc(O)c(O)cc4CC[C@H]3[C@@H]1CC[C@@H]2O	-0.25
O=C(c1ccc(F)cc1)[C@@H]1[C@@H](C(=O)c2ccccc2)[C@@]2(C(=O)Nc3ccccc32)[C@H]2c3ccccc3C=CN12	2.83
